Where do the numbers come from? From patent US20140271820A1.

Test system: KB (epidermoid oral carcinoma human tumor) cells
Test Name: In vitro cytotoxicity, KB cells
Experimental Context: read-out: sensitivity (IC50); KB cell-line
Observable: pIC50
// pIC50 is dimensionless: -log10 of concentration (M)

Input N.N.[Cl][Pt][Cl] [cisplatin] . Output pIC50: 5.40

---

System: HT29
Test Name: In vitro cytotoxicity, HT29
Type: cell-based, human
Experimental Context: HT29 and several other cell lines, 72 h
pIC50: −log10 of the molar value.
Observable: pIC50

The compound O=C1[O][Pt]2([NH][C@@H]3CCCC[C@H]3[NH]2)[O]C1=O [oxaliplatin] , when measured on HT29, yielded pIC50 of 5.00 to 5.30
